molecular target: recombinant cGAS (aa147-522) (Homo sapiens); construct: recombinant cGAS (aa147-522); His6-SUMO (N, cleaved yes); test: In vitro assay for inhibition of cGAS activity (ATP consumption, Kinase Glo); settings: 37° C. 20 minutes, read-out: Activity (Inhibition of cGAS enzyme activity in vitro, IC50)
Sequence (Q8N884 147-522): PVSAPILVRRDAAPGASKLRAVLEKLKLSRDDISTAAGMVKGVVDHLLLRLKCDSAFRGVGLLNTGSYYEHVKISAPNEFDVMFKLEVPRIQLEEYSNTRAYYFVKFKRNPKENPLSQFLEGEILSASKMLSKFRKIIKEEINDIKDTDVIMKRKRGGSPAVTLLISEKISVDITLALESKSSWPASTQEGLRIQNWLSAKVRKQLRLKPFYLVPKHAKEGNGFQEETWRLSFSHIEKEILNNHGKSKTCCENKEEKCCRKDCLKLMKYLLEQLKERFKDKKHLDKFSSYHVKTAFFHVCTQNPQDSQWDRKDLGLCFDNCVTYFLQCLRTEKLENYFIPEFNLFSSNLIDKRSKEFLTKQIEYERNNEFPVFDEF
observed-property: IC50

Below, 3 compounds whose answers are already recorded.
>>> result("CN1C(=O)S/C(=C\\c2cc(Oc3ccncc3)c(O)cc2Br)C1=O")
"≥ 10 µM"
>>> result("CC(Oc1cc(/C=C2\\Sc3ncccc3C2=O)c(Br)cc1O)c1cnc(Cl)nc1 (stereo not drawn)")
"≤ 0.5 µM"
>>> result("CN1C(=O)S/C(=C\\c2cc(OCc3cncc(NCc4ccncc4)c3)c(O)cc2Br)C1=O")
"≥ 10 µM"

Given the entry N=C1NC(=O)/C(=C/c2ccncc2)S1 , report its measured IC50.
≥ 10 µM

Given the entry CN1C(=O)S/C(=C\c2cc(CC(F)(F)F)c(O)cc2Br)C1=O , report its measured IC50.
0.5 to 10 µM
